Reference source: the supplement of paper PMC11865577

- Tested on: G-clamp-N3 (biotin conjugate)
- Assay Details: pull-down binding Z-score (relative to library population); higher = stronger binding
- Experimental Setup: RNA library: Library-1 (pre-miRNA loops + repeats)
Each entry below carries its reported pull-down binding Z-score.
Quantity Measured: pull-down binding Z-score

sequence_entry="UCCCCAGAAGCUGAGGAUUAGGGGA [hsa-mir-6503]" tested_system="G-clamp-N3 (biotin conjugate)" test_value=1.93
sequence_entry="ACACUGCGCUGCCCCAGACCCACUGU [hsa-mir-210]" tested_system="G-clamp-N3 (biotin conjugate)" test_value=-1.18
sequence_entry="CAGGGAACUUUAAAACC [hsa-mir-4324]" tested_system="G-clamp-N3 (biotin conjugate)" test_value=0.493
sequence_entry="AGAUGAGUUUAUGUUUUAUCCAACU [hsa-mir-193b]" tested_system="G-clamp-N3 (biotin conjugate)" test_value=-1.8
sequence_entry="CCACGGGCUGGGCACAGUGG [hsa-mir-3159]" tested_system="G-clamp-N3 (biotin conjugate)" test_value=1.07
sequence_entry="AUUUAUGUGAACUAAAAUAUAAAU [hsa-mir-513b]" tested_system="G-clamp-N3 (biotin conjugate)" test_value=-0.828
sequence_entry="AACUCUGUUGAAUAUAAAUUGGAAUU [hsa-mir-367]" tested_system="G-clamp-N3 (biotin conjugate)" test_value=-0.214
sequence_entry="GGGGCCCUACUUUAAGGGCCCU [hsa-mir-8087]" tested_system="G-clamp-N3 (biotin conjugate)" test_value=1.03
sequence_entry="GAGCUUCGUGUACAUUAUCUAUUAGAAAAUGAAGUAC [hsa-mir-4724]" tested_system="G-clamp-N3 (biotin conjugate)" test_value=-0.219
sequence_entry="GGAAUAGUGCUCCUGGUUGUUUC [hsa-mir-1180]" tested_system="G-clamp-N3 (biotin conjugate)" test_value=0.894
sequence_entry="AGAAUUACUUAUCUGAGCCAAAGUAAUUCA [hsa-mir-1297]" tested_system="G-clamp-N3 (biotin conjugate)" test_value=-0.86
sequence_entry="GAGUACCUUCCAACACGAGCUCUC [hsa-mir-3664]" tested_system="G-clamp-N3 (biotin conjugate)" test_value=-1.16
sequence_entry="CUUGCUUUGAAACUAAAGAAGUAAG [hsa-mir-302a]" tested_system="G-clamp-N3 (biotin conjugate)" test_value=0.749
sequence_entry="GGGCAGAAAUAGAUGGCCU [hsa-mir-4270]" tested_system="G-clamp-N3 (biotin conjugate)" test_value=2.97
sequence_entry="CUUUUGUUCAAAUAAAAAUGCAAAAG [hsa-mir-651]" tested_system="G-clamp-N3 (biotin conjugate)" test_value=-0.842
sequence_entry="AAUUUUCUCUUGUCUAAAAGAAAAGAACG [hsa-mir-521-2]" tested_system="G-clamp-N3 (biotin conjugate)" test_value=-0.762
sequence_entry="GGGACAUUGCGGAGAGGGUCUCACAUUGUCCC [hsa-mir-4646]" tested_system="G-clamp-N3 (biotin conjugate)" test_value=0.248
sequence_entry="AAGGCCCUUGGGCACCCCAGGCCUU [hsa-mir-5700]" tested_system="G-clamp-N3 (biotin conjugate)" test_value=-1.26
sequence_entry="GCUGGGGCGCGGGCUUUCGCUUUCAGUCGAGGGCUAGCGAGCGCAGC [hsa-mir-7846]" tested_system="G-clamp-N3 (biotin conjugate)" test_value=1.79
sequence_entry="GACCGUUGGCAUCUUAAUUACCCUC [hsa-mir-532]" tested_system="G-clamp-N3 (biotin conjugate)" test_value=-0.675
sequence_entry="CCAAAGAAACUUUUUUGG [hsa-mir-6079]" tested_system="G-clamp-N3 (biotin conjugate)" test_value=-0.295
sequence_entry="GUUCGGGGGUUCCGACGGCGAC [hsa-mir-6790]" tested_system="G-clamp-N3 (biotin conjugate)" test_value=3.09
sequence_entry="AAGACACUAUCUGACAACAACAGGGCUCUU [hsa-mir-550b-2]" tested_system="G-clamp-N3 (biotin conjugate)" test_value=0.0423
